Hello, the source for this data is patent US20250250357A1, in case you need it.

Biological target: T1, human MSLN-R1-his protein (human, UniProt Q13421 296-390)
T1 construct: Region 1 of human mesothelin, made in HEK293E cells, His-tagged; also called human MSLN-R1 protein; hMSLN-R1-his; not shown: His tag
T1 chain: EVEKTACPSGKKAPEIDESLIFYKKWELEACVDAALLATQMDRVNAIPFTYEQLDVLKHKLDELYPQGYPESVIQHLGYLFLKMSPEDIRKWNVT
Assay: ELISA on coated MSLN-R1; antibody 0.001 nM
// OD450 lookup, one value per entry
parameter measured: OD450 (OD450)

{"binder": "S009-F8-15.19 (antibody, human IgG1, kappa, V domains shown) VH: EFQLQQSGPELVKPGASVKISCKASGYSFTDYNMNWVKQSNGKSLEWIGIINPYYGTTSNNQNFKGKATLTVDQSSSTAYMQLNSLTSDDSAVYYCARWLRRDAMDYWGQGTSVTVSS VL: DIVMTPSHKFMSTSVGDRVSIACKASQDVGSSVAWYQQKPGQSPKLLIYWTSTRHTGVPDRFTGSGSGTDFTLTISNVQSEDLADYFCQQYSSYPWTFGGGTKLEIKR", "parameter measured": "OD450", "experimental value": 0.05}
{"binder": "S009-F8-31.22 (antibody, human IgG1, kappa, V domains shown) VH: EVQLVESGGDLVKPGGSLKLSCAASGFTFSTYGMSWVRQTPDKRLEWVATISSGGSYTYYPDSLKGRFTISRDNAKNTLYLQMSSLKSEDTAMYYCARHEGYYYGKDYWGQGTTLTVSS VL: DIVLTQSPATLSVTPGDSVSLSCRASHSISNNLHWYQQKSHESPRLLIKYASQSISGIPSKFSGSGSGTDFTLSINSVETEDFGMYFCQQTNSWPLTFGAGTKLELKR", "parameter measured": "OD450", "experimental value": 0.19}
{"binder": "S009-F8-7.5 (antibody, human IgG1, kappa, V domains shown) VH: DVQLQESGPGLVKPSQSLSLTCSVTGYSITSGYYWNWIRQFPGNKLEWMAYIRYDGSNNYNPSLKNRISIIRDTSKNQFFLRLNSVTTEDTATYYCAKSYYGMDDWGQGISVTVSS VL: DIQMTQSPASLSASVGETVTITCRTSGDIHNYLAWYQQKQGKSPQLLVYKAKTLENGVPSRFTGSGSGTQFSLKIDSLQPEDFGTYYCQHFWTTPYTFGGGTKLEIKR", "parameter measured": "OD450", "experimental value": 0.05}
